Biological target: T1, recombinant biotinylated CD71 extracellular domain (Sino Biologics) with an N-terminal 6His tag (human, UniProt P02786 89-760, biotinylated (sites not given))
T1 construct: extracellular domain; also called hCD71; huCD71
T1 sequence (P02786 other isoform, or with tags, fused parts or gaps): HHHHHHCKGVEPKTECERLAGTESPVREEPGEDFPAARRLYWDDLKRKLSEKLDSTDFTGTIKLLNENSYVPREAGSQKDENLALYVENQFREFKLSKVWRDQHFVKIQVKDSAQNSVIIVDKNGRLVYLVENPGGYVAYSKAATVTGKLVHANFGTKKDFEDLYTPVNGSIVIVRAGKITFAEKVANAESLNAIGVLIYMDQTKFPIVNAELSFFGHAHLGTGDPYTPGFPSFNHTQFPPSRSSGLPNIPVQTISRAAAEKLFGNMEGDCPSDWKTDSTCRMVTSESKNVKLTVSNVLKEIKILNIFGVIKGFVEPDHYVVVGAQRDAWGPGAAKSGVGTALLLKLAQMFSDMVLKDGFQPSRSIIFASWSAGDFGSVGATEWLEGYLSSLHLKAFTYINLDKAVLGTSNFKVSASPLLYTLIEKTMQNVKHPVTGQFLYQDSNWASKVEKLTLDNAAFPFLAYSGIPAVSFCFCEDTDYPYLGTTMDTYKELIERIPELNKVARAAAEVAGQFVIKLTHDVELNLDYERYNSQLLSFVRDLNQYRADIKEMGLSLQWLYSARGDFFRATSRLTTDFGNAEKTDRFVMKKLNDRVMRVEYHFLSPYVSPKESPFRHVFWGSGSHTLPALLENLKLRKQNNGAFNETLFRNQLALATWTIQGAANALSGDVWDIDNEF
Assay: screening ELISA
property_measured: hCD71

a: SEQ ID NO 81 (designed binder, FN3 domain) MLPAPKNLVVSRVTEDSARLSWTAPDAAFDSFVIEYREGAWYGEAIVLTVPGSERSYDLTGLKPGTEYAVYIPGVKGGPRSFPLSAIFTT
b: SEQ ID NO 135 (designed binder, FN3 domain) MLPAPKNLVVSRVTEDSARLSWTAPDAAFDSFPISYYEMSGLGEAIVLTVPGSERSYDLTGLKPGTEYMVYIFGVKGGLNSLPLSAIFTT
Lookup: # min-compare on hCD71 between a and b Respond using the label that marks the chosen record.
Found: a
(a: 537000, b: 2.06e+06)
